- assayed_system: T1, biotinylated human PD-L1-mFc (human, biotinylated (sites not given))
- T1 construct: also called PDL-1-mFc-biotin
- T1 sequence (chain, as listed by the source limits assumed): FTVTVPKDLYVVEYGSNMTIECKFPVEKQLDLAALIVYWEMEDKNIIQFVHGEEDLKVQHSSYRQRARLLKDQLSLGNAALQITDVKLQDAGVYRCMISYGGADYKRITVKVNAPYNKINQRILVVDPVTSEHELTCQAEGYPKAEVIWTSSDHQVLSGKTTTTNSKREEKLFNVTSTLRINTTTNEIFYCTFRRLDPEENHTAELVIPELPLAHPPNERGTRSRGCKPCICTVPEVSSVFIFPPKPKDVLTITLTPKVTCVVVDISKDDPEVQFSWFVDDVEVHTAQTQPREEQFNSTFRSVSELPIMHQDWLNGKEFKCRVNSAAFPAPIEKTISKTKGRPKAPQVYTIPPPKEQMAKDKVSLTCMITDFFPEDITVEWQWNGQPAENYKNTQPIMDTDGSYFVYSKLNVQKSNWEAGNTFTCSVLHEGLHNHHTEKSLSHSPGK
- method_summary: competition ELISA: blocks PD-L1-mFc-biotin binding to coated PD-1-hFc
reported_endpoint: IC50
In your response, the unit should come after the numeric value.

Answered examples (3):
{"columns": ["binder", "IC50"],
 "data": [
  ["m15F1 (antibody, V domains shown, Murine hybridoma IgG (printed 'mIgG'); also called 15F1-mIgG; 15F1 murine) VH: EEKLVESGGGLVKPGGSLKLSCAASGFSFSSYGMSWVRQTPEKRLEWVASISSGGSIYYPDSVKGRFTISRDNARNILYLQMSSLRSEDTAMYYCARGYDAGFAFWGQGTLVTASA VL: DIVLTQSPASLAVSLGQRATISCRASQSVSTSSYSYVHWYQQKPGQPPKLLIKYASNLESGVPARFSGSGSGTDFTLNIHPVEEEDTATYYCQHSWEIPYTFGGGTKLEIK", "0.655 µg/mL"],
  ["ch8H4-hIgG4 (antibody, V domains shown, Mouse-human chimeric IgG4 (F234A/L235A), human kappa; also called Chimeric 8H4-IgG4 (F234A/L235A); chimeric 8H4-hIgG4) VH: EVKLVESGGGLVKPGGSLKLSCAASGFTFRSYGMSWARQIPEKRLEWVASISSGGTTYYLGSVQGRFTISRDNARNILYLQMSSLRSEDTAMYYCARGYDAGFAYWGQGTLVSVSS VL: DIVLTQSPASLAVSLGQRATISCRASQSVSTSSYSYMHWYQQKPGQPPKLLIKYASNLESGVPARFSGSGSGTDFTLNIHPVEEEDTATYYCQNSWEIPYTFGGGTKLEIKR", "0.848 µg/mL"],
  ["m5G9 (antibody, V domains shown, Murine hybridoma IgG (printed 'mIgG'); also called 5G9-mIgG; 5G9 murine) VH: EVKLVESGGGLVKPGGSLKLSCAASGFTFRSYGMSWVRQTPEKRLEWVASISSGGTTYYPDSVKGRFIISRDNARNILYLQMSSLRSEDTAMYYCAKGYDSGFAYWGQGTLVIVSA VL: DIVLTQSPPSLAVSLGQRATISCRASQSVSTSSSSYMHWYQQKPGQPPKLLIKYASNLESGVPARFSGSGSGTDFTLNIHPVEEEDTATYYCQHSWEIPYTFGGGTKLEIK", "0.613 µg/mL"]
]}

Now for another entry.
**Q:** Return value of IC50 for input ch8C6-hIgG4 (antibody, V domains shown, Mouse-human chimeric IgG4 (F234A/L235A), human kappa; also called Chimeric 8C6-IgG4 (F234A/L235A); chimeric 8C6-hIgG4) VH: QVQLKQSGPGLVQPSQSLSITCTVSGFSLTSYGVHWVRQSPGKGLEWLGVIWSGGVTDYNAAFISRLSISKDNSKSQVFFKMNSLQANDTAIYYCARLGFYAMDYWGQGTSVTVSS VL: SIVMTQTPKFLLVSAGDRVTITCKASQSVSNDVGWYQQKPGQSPKLLIYYASNRYSGVPDRFTGSGYGTDFTFTISTVQAEDLAVYFCQQDYTSPYTFGGGTKLEIKR , no commentary.
**A:** 0.477 µg/mL
